- Procedure Text: Pharmacokinetics in SD rats (intravenous injection and oral administration)
- Type: in vivo
- Test Settings: rat, plasma; male SD rats, intravenous 1 mg/kg; read-out: Half-life T1/2 (IV) (converted)
Consider the following molecules; for each one, report its half-life.
Write the answer as a number in min, unit excluded.

Given the entry COc1cccc(C(NC(=O)c2cccc(-c3ccc4[nH]nc(C)c4c3)c2)C(C)(C)N)c1 (stereo not shown) , report its measured half-life.
170

Given the entry COc1cccc(C(CNS(C)(=O)=O)NC(=O)c2cccc(-c3ccc4[nH]nc(C)c4c3)c2)c1 (stereo not shown) , report its measured half-life.
37.2

Given the entry COc1cccc(C(CN)NC(=O)c2cc(-c3ccc4[nH]nc(C)c4c3)ccc2OC(F)(F)F)c1 (stereo not shown) , report its measured half-life.
289

Given the entry CNCC(NC(=O)c1cc(-c2ccc3[nH]nc(C)c3c2)ccn1)c1cccc(OC)c1 (stereo not shown) , report its measured half-life.
164

###

// each record: one item and its pIC50 for ROCK2 (Homo sapiens (Human), UniProt O75116)
# pIC50: negative log10 of molar concentration; output just the value

Given the entry COc1cccc(C(CCO)NC(=O)c2cncc(-c3ccc4[nH]ncc4c3)c2)c1 (centres unmarked) , report its measured pIC50.
7.96

Given the entry O=C(NC(CO)c1cc(F)cc(F)c1)c1cccc(-c2ccc3[nH]ncc3c2)c1 (centres unmarked) , report its measured pIC50.
7.64

Given the entry COc1cccc(C(CN)NC(=O)c2cc(-c3ccc4[nH]nc(C)c4c3)ccn2)c1 (centres unmarked) , report its measured pIC50.
8.40

Given the entry COc1cccc(C(CN)NC(=O)c2cc(C#N)cc(-c3ccc4[nH]nc(C)c4c3)c2)c1 (centres unmarked) , report its measured pIC50.
7.24

Given the entry COc1cccc(C(CN)NC(=O)c2cc(CN3CCCC3)cc(-c3ccc4[nH]nc(F)c4c3)c2)c1 (centres unmarked) , report its measured pIC50.
7.32

Given the entry COc1cccc(C(CN)NC(=O)c2cccc(-c3cc(OC)c4[nH]ncc4c3)c2)c1 (centres unmarked) , report its measured pIC50.
8.05

Given the entry COc1cccc(C(CO)NC(=O)c2cccc(-c3ccc4[nH]nc(N)c4c3)c2)c1 (centres unmarked) , report its measured pIC50.
7.52

Given the entry NCC(NC(=O)c1cccc(-c2ccc3[nH]nc(F)c3c2)c1)c1cccc(F)c1F (centres unmarked) , report its measured pIC50.
7.32

Given the entry COCCC(NC(=O)c1cccc(-c2ccc3[nH]ncc3c2)c1)c1cccc(OC)c1 (centres unmarked) , report its measured pIC50.
7.70

Given the entry COc1cccc(C(CO)NC(=O)c2cccc(-c3ccc4[nH]ncc4c3)c2)c1 (centres unmarked) , report its measured pIC50.
8.22

Given the entry O=C(NC(CCO)c1ccccc1F)c1cccc(-c2ccc3[nH]ncc3c2)c1 (centres unmarked) , report its measured pIC50.
7.46

Given the entry COc1cccc(C(CO)NC(=O)c2cc(F)cc(-c3ccc4[nH]ncc4c3)c2)c1 (centres unmarked) , report its measured pIC50.
7.92

Given the entry COc1cccc(C(CCO)NC(=O)c2ccnc(-c3ccc4[nH]ncc4c3)c2)c1 (centres unmarked) , report its measured pIC50.
7.68

Given the entry COc1cccc(C(NC(=O)c2cccc(-c3ccc4[nH]nc(C)c4c3)c2)C(C)(C)N)c1 (centres unmarked) , report its measured pIC50.
7.34

Given the entry COc1cccc(C(CN)NC(=O)c2cccc(-c3ccc4[nH]nc(N)c4c3)c2)c1 (centres unmarked) , report its measured pIC50.
8.15

Given the entry COc1cccc(C(CN)NC(=O)c2cccc(-c3ccc4[nH]ncc4c3)c2)c1 (centres unmarked) , report its measured pIC50.
8.40

Given the entry COc1cccc(C(CO)NC(=O)c2cc(-c3ccc4[nH]ncc4c3)ccc2F)c1 (centres unmarked) , report its measured pIC50.
7.92

###

Consider the following compounds; for each one, report its half-life.
- Procedure Text: Pharmacokinetics in SD rats (intravenous injection and oral administration)
- Type: in vivo
- Test Settings: rat, plasma; male SD rats, intravenous 1 mg/kg; read-out: Half-life T1/2 (IV) (converted)
Write the answer as a number in h, unit excluded.

Given the entry COc1cccc(C(CN)NC(=O)c2cc(-c3ccc4[nH]nc(C)c4c3)ccn2)c1 (stereo not drawn) [Compound 40] , report its measured half-life.
3.58

Given the entry COc1cccc(C(CO)NC(=O)c2cccc(-c3ccc4[nH]nc(C)c4c3)c2)c1 (stereo not drawn) [Compound 25] , report its measured half-life.
2.91

Given the entry Cc1cccc(C(CN)NC(=O)c2cccc(-c3ccc4[nH]nc(C)c4c3)c2)c1 (stereo not drawn) [Compound 35] , report its measured half-life.
3.83

Given the entry COc1cccc(C(CN(C)C)NC(=O)c2cccc(-c3ccc4[nH]nc(C)c4c3)c2)c1 (stereo not drawn) [Compound 36] , report its measured half-life.
1.33

Given the entry Cc1n[nH]c2ccc(-c3cccc(C(=O)NC(CN)c4cccc(F)c4F)c3)cc12 (stereo not drawn) [Compound 61] , report its measured half-life.
2.37

Given the entry COc1cccc(C(CO)NC(=O)c2cccc(-c3ccc4[nH]nc(F)c4c3)c2)c1 (stereo not drawn) [Compound 26] , report its measured half-life.
2.5

###

Consider the following compounds; for each one, report its pIC50.
- Target Of Assay: ROCK2 (Homo sapiens (Human), UniProt O75116)
- Sequence (O75116 whole entry): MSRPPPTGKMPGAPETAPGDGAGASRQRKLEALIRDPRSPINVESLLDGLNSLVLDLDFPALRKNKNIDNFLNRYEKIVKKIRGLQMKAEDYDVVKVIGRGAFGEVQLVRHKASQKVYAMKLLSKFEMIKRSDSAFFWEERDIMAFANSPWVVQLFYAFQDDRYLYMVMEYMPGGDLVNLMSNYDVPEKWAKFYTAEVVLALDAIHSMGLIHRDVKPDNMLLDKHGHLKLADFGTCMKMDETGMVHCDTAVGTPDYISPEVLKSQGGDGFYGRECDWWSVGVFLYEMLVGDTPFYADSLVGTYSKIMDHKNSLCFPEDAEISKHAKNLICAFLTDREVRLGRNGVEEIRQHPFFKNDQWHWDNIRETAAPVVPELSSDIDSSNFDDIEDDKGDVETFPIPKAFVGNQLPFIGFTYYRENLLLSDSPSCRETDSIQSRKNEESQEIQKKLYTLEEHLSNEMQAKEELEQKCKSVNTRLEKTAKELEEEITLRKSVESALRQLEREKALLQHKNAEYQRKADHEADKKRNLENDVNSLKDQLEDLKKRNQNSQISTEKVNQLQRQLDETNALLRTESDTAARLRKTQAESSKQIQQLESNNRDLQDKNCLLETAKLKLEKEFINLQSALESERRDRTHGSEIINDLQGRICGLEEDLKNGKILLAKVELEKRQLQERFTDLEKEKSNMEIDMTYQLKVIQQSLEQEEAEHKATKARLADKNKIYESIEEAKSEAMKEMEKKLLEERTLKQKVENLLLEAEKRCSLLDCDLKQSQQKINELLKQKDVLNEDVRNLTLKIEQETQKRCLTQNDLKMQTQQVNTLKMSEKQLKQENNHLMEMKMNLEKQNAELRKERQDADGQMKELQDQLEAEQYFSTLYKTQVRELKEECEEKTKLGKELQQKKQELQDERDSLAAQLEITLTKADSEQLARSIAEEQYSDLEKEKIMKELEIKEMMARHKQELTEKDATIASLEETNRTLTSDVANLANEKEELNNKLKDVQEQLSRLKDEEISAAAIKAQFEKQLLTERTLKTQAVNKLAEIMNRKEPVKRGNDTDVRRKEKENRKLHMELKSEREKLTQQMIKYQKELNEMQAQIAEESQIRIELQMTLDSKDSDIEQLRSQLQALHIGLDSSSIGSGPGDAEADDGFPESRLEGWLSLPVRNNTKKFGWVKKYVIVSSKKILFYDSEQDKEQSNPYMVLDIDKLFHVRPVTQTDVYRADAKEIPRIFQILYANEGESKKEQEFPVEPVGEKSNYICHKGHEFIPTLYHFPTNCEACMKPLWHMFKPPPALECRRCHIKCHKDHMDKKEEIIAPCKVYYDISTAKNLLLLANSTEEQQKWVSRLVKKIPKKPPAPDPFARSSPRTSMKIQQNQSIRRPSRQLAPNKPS
# pIC50: negative log10 of molar concentration; output just the value

Given the entry NCC(NC(=O)c1cccc(-c2ccc3[nH]ncc3c2)c1)c1cccc(F)c1 (stereo not drawn) , report its measured pIC50.
8.15

Given the entry COc1cccc(C(CN)NC(=O)c2cc(-c3ccc4[nH]nc(C)c4c3)ccc2OC(F)(F)F)c1 (stereo not drawn) , report its measured pIC50.
7.51

Given the entry COc1cccc(C(CN(C)C)NC(=O)c2cccc(-c3ccc4[nH]ncc4c3)c2)c1 (stereo not drawn) , report its measured pIC50.
8.22

Given the entry COc1cccc(C(CN2CCNCC2)NC(=O)c2cccc(-c3ccc4[nH]nc(F)c4c3)c2)c1 (stereo not drawn) , report its measured pIC50.
7.29

Given the entry COc1cccc(C(CNC(C)C)NC(=O)c2cc(-c3ccc4[nH]nc(C)c4c3)ccn2)c1 (stereo not drawn) , report its measured pIC50.
7.62

Given the entry COc1cccc(C(CN2CCNCC2)NC(=O)c2cccc(-c3ccc4[nH]ncc4c3)c2)c1 (stereo not drawn) , report its measured pIC50.
7.64

Given the entry Cc1n[nH]c2ccc(-c3cccc(C(=O)NC(CN)c4cccc(F)c4)c3)cc12 (stereo not drawn) , report its measured pIC50.
8.40

Given the entry COc1cccc(C(CN)NC(=O)c2cccc(-c3ccc4[nH]nc(F)c4c3)c2)c1 (stereo not drawn) [Compound 54] , report its measured pIC50.
7.68

Given the entry O=C(NC(CCO)c1cccc(Cl)c1)c1cccc(-c2ccc3[nH]ncc3c2)c1 (stereo not drawn) , report its measured pIC50.
7.80

###

// each record: one item and its IC50 for UniProt Q13464
Sequence (Q13464 whole entry): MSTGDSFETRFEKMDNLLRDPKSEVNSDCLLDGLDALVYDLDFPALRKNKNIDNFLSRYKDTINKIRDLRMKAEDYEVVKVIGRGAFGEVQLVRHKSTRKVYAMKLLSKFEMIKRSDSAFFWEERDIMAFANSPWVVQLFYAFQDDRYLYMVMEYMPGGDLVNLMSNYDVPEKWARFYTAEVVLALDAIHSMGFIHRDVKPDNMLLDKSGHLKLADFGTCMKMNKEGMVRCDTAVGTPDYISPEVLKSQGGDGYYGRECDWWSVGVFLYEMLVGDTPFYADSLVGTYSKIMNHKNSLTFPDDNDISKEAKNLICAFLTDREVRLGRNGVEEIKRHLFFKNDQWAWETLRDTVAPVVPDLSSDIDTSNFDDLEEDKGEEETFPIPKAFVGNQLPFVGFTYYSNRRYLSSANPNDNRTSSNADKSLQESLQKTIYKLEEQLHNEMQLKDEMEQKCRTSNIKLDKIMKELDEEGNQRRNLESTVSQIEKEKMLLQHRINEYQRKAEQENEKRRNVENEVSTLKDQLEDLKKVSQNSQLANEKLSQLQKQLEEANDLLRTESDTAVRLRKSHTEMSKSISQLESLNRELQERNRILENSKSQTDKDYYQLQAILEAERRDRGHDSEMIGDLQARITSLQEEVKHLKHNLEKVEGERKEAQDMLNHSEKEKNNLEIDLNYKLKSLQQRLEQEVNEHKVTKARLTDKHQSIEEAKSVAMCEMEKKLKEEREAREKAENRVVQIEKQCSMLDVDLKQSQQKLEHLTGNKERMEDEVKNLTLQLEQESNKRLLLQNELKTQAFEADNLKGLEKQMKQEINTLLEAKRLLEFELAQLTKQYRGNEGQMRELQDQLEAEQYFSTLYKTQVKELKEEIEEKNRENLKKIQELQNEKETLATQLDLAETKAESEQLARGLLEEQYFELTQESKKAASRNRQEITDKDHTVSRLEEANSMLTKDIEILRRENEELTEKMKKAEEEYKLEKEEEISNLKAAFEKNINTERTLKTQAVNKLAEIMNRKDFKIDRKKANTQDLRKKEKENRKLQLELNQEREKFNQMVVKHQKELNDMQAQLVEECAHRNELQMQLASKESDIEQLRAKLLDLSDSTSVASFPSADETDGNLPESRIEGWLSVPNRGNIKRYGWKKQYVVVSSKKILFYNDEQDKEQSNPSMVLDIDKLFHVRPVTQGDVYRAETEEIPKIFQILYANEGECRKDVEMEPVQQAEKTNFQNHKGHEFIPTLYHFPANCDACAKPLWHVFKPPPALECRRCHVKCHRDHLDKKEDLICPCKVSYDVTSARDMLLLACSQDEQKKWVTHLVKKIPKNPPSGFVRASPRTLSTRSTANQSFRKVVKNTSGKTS
Write the answer as a number in nM, unit excluded.

Given the entry COc1cccc(C(CO)NC(=O)c2cccc(-c3ccc4[nH]nc(F)c4c3)c2)c1 (stereo not shown) [Compound 26] , report its measured IC50.
113

Given the entry O=C(NC(CCO)c1cccc(Cl)c1)c1cccc(-c2ccc3[nH]ncc3c2)c1 (stereo not shown) [Compound 13] , report its measured IC50.
139

Given the entry COc1cc(C(=O)NC(CN)c2cccc(OC)c2)cc(-c2ccc3[nH]nc(F)c3c2)c1 (stereo not shown) [Compound 53] , report its measured IC50.
1090

Given the entry COc1cccc(C(CN)NC(=O)c2cc(-c3ccc4[nH]nc(C)c4c3)ccc2OC(F)(F)F)c1 (stereo not shown) [Compound 49] , report its measured IC50.
1200

Given the entry COc1cccc(C(CN)NC(=O)c2cc(C#N)cc(-c3ccc4[nH]nc(C)c4c3)c2)c1 (stereo not shown) [Compound 57] , report its measured IC50.
1260

Given the entry CNCC(NC(=O)c1cccc(-c2ccc3[nH]nc(C)c3c2)c1)c1cccc(OC)c1 (stereo not shown) [Compound 65] , report its measured IC50.
138

Given the entry COc1cccc(C(CN)NC(=O)c2cc(-c3ccc4[nH]nc(F)c4c3)ccc2OC(F)F)c1 (stereo not shown) [Compound 48] , report its measured IC50.
84

Given the entry COc1cccc(C(CN(C)C)NC(=O)c2cccc(-c3ccc4[nH]nc(C)c4c3)c2)c1 (stereo not shown) [Compound 36] , report its measured IC50.
73

Given the entry COc1cccc(C(CCO)NC(=O)c2cccc(-c3ccc4[nH]ncc4c3)c2)c1 (stereo not shown) [Compound 2] , report its measured IC50.
79

Given the entry COc1cccc(C(CN(C)C)NC(=O)c2cccc(-c3ccc4[nH]ncc4c3)c2)c1 (stereo not shown) [Compound 10] , report its measured IC50.
79
